Biological target: Vitamin D3 receptor (Mus musculus)
Assay: Agonist activity at VDR in mouse 4T1 cells assessed as induction of Cyp24a1 gene at 0.1 to 10 uM measured after 24 hrs by RT-qPCR analysis
Assay type: cell-based
Conditions: filed as agonist, dose 0.1-10 µM
Calls of active or inactive are those of the source. The calls are words filed in the database; no cut-off is given here.
measuredMetric: Activity

[
  {
    "compound": "CCC(CC)(c1ccc(C(=O)NCCCCCC(=O)NO)cc1)c1ccc(OCC(O)C(C)(C)C)c(C)c1 (stereo not given)",
    "measuredMetric": "Activity",
    "reportedResult": "Active"
  },
  {
    "compound": "CCC(CC)(c1ccc(C(=O)NCCCCC(=O)NO)cc1)c1ccc(OCC(O)C(C)(C)C)c(C)n1 (stereo not given)",
    "measuredMetric": "Activity",
    "reportedResult": "Active"
  },
  {
    "compound": "CCC(CC)(c1ccc(OCCCCCC(=O)NO)cc1)c1ccc(OCC(O)C(C)(C)C)c(C)n1 (stereo not given)",
    "measuredMetric": "Activity",
    "reportedResult": "Active"
  }
]
